Every entry's value here was drawn from ChEMBL document CHEMBL4689842.

# Test system: HEK-293T
# Assay name: Multiplex assay against HEK293T
# Assay type: toxicity, cell-based
# Run conditions: human, 12 h, 1 µM, compound concentration 1 uM, replicate 2
Property label: Population Membrane Permeable-Phenotype (%)

In: # get_value(readout='Population Membrane Permeable-Phenotype (%)', item= Cl.Oc1ccc2c3c1O[C@H]1c4[nH]c5c(c4C[C@@]4(O)[C@@H](C2)N(CC2CC2)CC[C@]314)C[C@@]1(O)[C@H]2Cc3ccc(O)c4c3[C@@]1(CCN2CC1CC1)[C@H]5O4 )
Out: 8%

In: Repeat with CCc1cccc(CC)c1NC(=O)c1nn(C)c2c1CCc1cnc(Nc3ccc(C(=O)NC4CCN(C)CC4)cc3OC(F)(F)F)nc1-2
Out: 2%

In: Try O=C1N/C(=N/c2ccccc2F)S/C1=C\c1ccc(C(=O)O)cc1 next.
Out: 6%

In: Quick one: CNC(=O)c1ccc(Nc2nc(OC3CCCC3)c3c(-c4ccc5nc(C)oc5c4)c[nH]c3n2)c(OC)c1
Out: 18%

In: Param item: O=C(Nc1ccc(-c2ccnc(Nc3ccc(N4CCOCC4)cc3)n2)cc1)[C@@H]1CCCN1
Out: 12%

In: Next compound up: O=C(Nc1ccc(Cl)cc1)Nc1cccc(-c2cccc(N3CCCC3)n2)c1
Out: 16%

In: Quick one: S=C(NCCCc1c[nH]cn1)NCCCN(Cc1ccc(Cl)c(Cl)c1)c1ccc(Br)cn1
Out: 22%

In: Further, for CCOc1cc(C(=O)N2CCC(N3CCN(C)CC3)CC2)ccc1Nc1ncc2c(n1)N(C1CCCC1)c1ccccc1C(=O)N2C ?
Out: 9%

In: Then what about the compound COc1ccc(-c2ccc3c(N4CCOCC4)nc(N4C[C@@H](C)O[C@@H](C)C4)nc3n2)cc1CO ?
Out: 1%

In: Now give it for C=CCn1c(=O)c2cnc(Nc3ccc(N4CCN(C)CC4)cc3)nc2n1-c1cccc(C(C)(C)O)n1 too.
Out: 3%

In: Follow-up entry: Cn1nc(C(F)(F)F)cc1-c1cnc(N2CCc3cc(S(=O)(=O)Nc4c(F)cc(Cl)cc4F)cc(N4CCCC4=O)c32)nc1
Out: 9%

In: Would you kindly repeat that for NC(=O)c1cccc(-c2cc(Nc3ccc(OC(F)(F)F)cc3)ncn2)c1 ?
Out: 0%

In: What do we get for COc1ccc(S(=O)(=O)N(CCO)c2ccccc2CN(C)C/C=C/c2ccc(Cl)cc2)cc1.O=P(O)(O)O ?
Out: 3%

In: Param item: CCCS(=O)(=O)Nc1ccc(F)c(C(=O)c2c[nH]c3ncc(Cl)cc23)c1F
Out: 2%
